test-target: EGF receptor autophosphorylation in A431 cells (Homo sapiens)
Construct: A431 human epidermoid carcinoma cells were grown in 6-well plates; endogenous in cells; host or cells: A431 human epidermoid carcinoma cells
assay-notes: Autophosphorylation assay in A431 cells
Type: cell-based
Items are presented alongside their recorded IC50.
Note: a bare number is incomplete; add the unit.

C=CC(=O)Nc1cc2c(Nc3cccc(Br)c3)ncnc2cc1OCCCN1CCN(C)CC1 [Example 24] ... 7.9 nM

We next turn to a different compound, shown below.
Tell me its IC50 given C=CC(=O)Nc1cc2c(Nc3cccc(Br)c3)ncnc2cc1OCCCn1ccnc1 [Example 25] as the entry. 21 nM

###

test-target: EGF receptor tyrosine kinase (Homo sapiens, UniProt P00533)
Sequence (P00533 25-1210): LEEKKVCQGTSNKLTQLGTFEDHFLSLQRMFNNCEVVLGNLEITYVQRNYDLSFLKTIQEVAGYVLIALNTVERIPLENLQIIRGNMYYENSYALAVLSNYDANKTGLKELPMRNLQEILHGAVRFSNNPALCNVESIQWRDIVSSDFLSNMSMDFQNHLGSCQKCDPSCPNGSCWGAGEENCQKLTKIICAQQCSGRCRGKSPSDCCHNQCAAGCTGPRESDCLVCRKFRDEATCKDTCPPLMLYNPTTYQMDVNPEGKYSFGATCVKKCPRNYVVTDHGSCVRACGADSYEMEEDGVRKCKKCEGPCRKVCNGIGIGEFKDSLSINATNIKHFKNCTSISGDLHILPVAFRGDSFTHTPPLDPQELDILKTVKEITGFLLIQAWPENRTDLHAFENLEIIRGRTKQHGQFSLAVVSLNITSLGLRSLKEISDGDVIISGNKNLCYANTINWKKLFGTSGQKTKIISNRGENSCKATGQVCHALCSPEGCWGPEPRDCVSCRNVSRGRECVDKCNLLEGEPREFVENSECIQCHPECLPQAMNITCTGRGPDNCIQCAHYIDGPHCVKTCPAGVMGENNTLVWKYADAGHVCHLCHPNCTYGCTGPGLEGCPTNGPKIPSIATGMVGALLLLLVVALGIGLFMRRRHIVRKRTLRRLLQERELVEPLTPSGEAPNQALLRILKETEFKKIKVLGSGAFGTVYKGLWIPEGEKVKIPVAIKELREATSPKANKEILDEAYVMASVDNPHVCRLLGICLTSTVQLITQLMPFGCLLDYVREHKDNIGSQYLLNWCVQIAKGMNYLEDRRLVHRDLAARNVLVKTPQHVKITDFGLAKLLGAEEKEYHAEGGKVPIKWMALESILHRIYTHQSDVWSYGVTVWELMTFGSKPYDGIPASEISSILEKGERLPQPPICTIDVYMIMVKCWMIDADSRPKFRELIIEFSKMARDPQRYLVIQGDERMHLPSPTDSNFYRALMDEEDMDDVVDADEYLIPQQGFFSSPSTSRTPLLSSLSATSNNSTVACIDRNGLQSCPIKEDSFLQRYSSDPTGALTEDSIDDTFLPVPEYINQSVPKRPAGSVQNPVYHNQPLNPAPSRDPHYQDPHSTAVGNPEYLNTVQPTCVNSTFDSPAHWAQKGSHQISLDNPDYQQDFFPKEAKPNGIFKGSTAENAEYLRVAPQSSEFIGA
assay-notes: Tyrosine kinase assay, isolated EGF receptor tyrosine kinase
Type: biochemical
reported-conditions: read-out: EGFR Tyrosine Kinase IC50
quantity-name: IC50

// worked examples, IC50 included
C=CC(=O)Nc1cc2c(Nc3cccc(Br)c3)ncnc2cc1OCCCn1ccnc1 ... 3 nM
C=CC(=O)Nc1cc2c(Nc3cccc(Br)c3)ncnc2cc1OCCCN1CCN(C)CC1 ... 4 nM

Give recorded IC50. Brc1cccc(Nc2ncnc3ccccc23)c1 [Example 7, N-(3-Bromo-phenyl)-quinazolin-4-yl-amine, reference compound] 27 nM
